Values from patent US20160264650A1

For each entry below, report its T½ value.
assayed_target: T1, Clostridium difficile toxin B, soluble full-length (TechLab) (Clostridium difficile, UniProt P18177 2-2366)
T1 construct: also called tcdB
T1 sequence (P18177 2-2366 limits assumed): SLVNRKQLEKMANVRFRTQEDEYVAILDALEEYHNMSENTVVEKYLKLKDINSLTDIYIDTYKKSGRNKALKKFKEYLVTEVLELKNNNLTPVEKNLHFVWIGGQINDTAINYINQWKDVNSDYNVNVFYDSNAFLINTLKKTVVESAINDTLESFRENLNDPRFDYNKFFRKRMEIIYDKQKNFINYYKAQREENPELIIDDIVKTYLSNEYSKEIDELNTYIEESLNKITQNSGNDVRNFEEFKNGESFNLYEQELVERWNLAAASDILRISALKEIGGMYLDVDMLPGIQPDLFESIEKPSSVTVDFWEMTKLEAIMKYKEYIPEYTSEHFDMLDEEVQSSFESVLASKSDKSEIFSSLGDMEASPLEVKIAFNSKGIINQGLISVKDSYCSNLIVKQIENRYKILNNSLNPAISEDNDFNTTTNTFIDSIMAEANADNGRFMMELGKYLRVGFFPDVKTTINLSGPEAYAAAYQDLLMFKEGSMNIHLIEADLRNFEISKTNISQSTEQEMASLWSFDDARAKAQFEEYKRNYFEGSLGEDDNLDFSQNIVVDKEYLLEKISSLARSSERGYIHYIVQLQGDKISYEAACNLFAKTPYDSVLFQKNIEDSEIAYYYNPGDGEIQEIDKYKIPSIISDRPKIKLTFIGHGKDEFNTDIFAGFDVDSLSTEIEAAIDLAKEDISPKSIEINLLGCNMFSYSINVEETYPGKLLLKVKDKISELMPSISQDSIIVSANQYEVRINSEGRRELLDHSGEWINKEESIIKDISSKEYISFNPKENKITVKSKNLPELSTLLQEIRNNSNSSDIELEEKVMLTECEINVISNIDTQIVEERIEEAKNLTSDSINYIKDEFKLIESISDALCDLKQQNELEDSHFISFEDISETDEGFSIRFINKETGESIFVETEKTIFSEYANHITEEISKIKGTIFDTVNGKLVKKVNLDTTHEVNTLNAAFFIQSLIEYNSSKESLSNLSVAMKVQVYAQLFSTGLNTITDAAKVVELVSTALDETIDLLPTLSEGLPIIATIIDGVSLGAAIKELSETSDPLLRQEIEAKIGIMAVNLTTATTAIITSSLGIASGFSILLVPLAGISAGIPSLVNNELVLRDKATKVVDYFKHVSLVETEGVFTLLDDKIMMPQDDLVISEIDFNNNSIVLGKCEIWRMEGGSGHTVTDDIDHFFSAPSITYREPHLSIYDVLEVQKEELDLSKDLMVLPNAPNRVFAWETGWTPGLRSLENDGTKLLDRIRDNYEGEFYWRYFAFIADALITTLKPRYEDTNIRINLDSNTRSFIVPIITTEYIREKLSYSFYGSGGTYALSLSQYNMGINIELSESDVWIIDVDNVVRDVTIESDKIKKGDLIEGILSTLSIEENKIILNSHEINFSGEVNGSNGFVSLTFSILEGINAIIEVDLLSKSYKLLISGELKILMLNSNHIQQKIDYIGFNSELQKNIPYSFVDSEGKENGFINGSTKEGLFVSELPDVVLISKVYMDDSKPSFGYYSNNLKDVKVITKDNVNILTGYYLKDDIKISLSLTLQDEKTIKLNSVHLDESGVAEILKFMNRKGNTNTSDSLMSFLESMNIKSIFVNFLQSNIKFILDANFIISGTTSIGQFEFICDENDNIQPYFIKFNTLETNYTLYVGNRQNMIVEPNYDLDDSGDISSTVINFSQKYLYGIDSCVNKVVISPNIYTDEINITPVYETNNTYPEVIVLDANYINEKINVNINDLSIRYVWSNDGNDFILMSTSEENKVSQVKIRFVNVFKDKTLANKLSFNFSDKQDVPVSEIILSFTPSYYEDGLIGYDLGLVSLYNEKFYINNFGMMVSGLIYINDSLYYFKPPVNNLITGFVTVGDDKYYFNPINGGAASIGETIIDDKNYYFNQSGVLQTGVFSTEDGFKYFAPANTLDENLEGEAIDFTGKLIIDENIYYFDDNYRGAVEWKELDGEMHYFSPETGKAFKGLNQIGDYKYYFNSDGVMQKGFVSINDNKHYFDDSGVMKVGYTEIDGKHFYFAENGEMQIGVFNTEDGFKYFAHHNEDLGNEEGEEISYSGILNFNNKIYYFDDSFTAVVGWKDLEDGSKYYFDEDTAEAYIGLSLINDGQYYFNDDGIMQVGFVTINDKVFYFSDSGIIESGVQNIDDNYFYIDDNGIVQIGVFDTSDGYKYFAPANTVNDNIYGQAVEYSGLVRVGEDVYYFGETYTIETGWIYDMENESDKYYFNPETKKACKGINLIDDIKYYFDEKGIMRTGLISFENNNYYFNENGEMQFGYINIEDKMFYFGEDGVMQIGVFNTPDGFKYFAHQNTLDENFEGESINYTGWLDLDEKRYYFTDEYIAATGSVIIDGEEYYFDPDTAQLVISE
assay_explanation: SPR Biacore T200, 37C, mAb capture
One number for each entry, in min.

Here's what some known entries look like.
H1H3344P (antibody, V domains shown) VH: EVQLVESGGGLVQPGGSLRLSCAASGFTFKIYAMSWVRQGPGKGLEWVSAISGNGDKTYYTDSVQGRFTISRDNSKNTLFLQMNSLRAEDTAIYYCARGWELLNYWGQGTLVTVSS VL: DIQMTQSPSSLSASIGDRVTITCRASQDISNSLAWFQQKPGKAPKSLIYAASSLQSGVPSRFSGSGSGTDFTLTISSLQPEDFATYYCQQYIPFPPTFGPGTKVDIKR    13
H1H3394P (antibody, V domains shown) VH: QVQLVQSGAEVQKPGASVKVSCKASGYTFTDYYIHWVRQAPGQGLEWMGWINPKTGGTNYAPKFQGRVTMTRDSSIITAYMDLTRLTSDDTAVFYCARRGYNSRWSVFDYWGQGTLVTVSS VL: EIVLTQSPGTLSLSPGERATLSCRASQSVYSNYLAWYQQKRGLAPRLLIYGASSRATGIPDRFSGSGSGTDFTLTISRLEPEDFAVYYCQQHGGSPVTFGGGTKVEIKR    72
H1H3339P (antibody, V domains shown) VH: EVQLVESGGGLVQPGGSLRLSCAVSGFTFSIYAMSWVRQAPGKGLEWVSAISGSGDKTYYADSVKGRFTISRDNSKNTLYLQMNSLRAEDTAVFYCARGWELLNYWGQGTLVTVSS VL: DIQMTQSPSSLSASVGDRVTITCRASLDISNFLAWFQQKPGTAPKSLIYSASSLRTGVPSKFSGSGSGTDFTLTISSLQPEDFATYYCQQYSSYPPTFGPGTKVDIKR    22

Kindly consider the entry below.
Query: Read off the recorded T½ for H1H3335P (antibody, V domains shown) VH: EVQLVESGGGLVRPGGSLRLSCAASGFTFRIYAMSWVRQAPGKGLEWVSGISGSGDNTYYTDSVKGRFIISRDNSKSTLYLQMNSLRAEDTAVYYCARGWELLNYWGQGTLVTVSS VL: DIQMTQSPSSLSAFVGDRVTITCRASQDISNHLAWFQQKPGKVPKSLIYAASSLQSGVPSKFSGSGSGTDFTLTISSLQPEDFATYYCQQYGLYPPTFGPGTKVDIKR
Reply: 28
